Target: wild-type human melanocortin 4 receptor (WT-hMC4R) (Homo sapiens, UniProt P32245)
Sequence (P32245 whole entry): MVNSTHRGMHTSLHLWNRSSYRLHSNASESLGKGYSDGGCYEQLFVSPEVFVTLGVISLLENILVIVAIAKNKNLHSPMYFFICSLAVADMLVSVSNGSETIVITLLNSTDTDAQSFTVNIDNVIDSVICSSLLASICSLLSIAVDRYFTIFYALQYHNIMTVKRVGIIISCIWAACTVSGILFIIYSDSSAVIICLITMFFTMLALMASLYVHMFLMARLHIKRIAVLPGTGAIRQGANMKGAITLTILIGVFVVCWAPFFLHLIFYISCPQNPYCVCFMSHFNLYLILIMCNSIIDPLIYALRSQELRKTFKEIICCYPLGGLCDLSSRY
Assay: Cyclic AMP assay (HTRF), antagonist competition against NDP-α-MSH
Details: HEK293T cells stably expressing WT-hMC4R; inhibition of response to 4 nM NDP-α-MSH; cAMP
Provide the reported IC50 of each item.

Query: Entry CCCCN(CCCC)C(=O)c1cnc2nc(Nc3ccc(OC)cc3)n(CCCN3CCCCC3)c2n1 , system wild-type human melanocortin 4 receptor (WT-hMC4R) (Homo sapiens, UniProt P32245): what IC50 was measured?
Response: 100 to 1000 nM

Query: Find the measured IC50: item CCCCN(CCCC)C(=O)c1cc2c(cn1)nc(Oc1ccc(OC)cc1)n2CCCN1CCCCC1 , target or system wild-type human melanocortin 4 receptor (WT-hMC4R) (Homo sapiens, UniProt P32245).
Response: 100 to 1000 nM

Query: # returns recorded IC50 (system: wild-type human melanocortin 4 receptor (WT-hMC4R) (Homo sapiens, UniProt P32245)) for CCCCCN(CCCCC)C(=O)c1ccc2nc(Nc3ccc(OC)cc3)n(CCCN3CCCCC3)c2n1
Response: < 100 nM

Query: // lookup IC50 | system=wild-type human melanocortin 4 receptor (WT-hMC4R) (Homo sapiens, UniProt P32245) | key= COc1ccc(Nc2nc3ccc(C(=O)N4CCCC5CCCCC54)nc3n2CCCN2CCCCC2)cc1 (stereo not drawn)
Response: 1000 to 15000 nM

Query: Provide the documented IC50 with wild-type human melanocortin 4 receptor (WT-hMC4R) (Homo sapiens, UniProt P32245) as the system for CC(C)CCN(CCC(C)C)C(=O)c1cc2c(cn1)nc(-c1cc3ccccc3s1)n2CCCN1CCCCC1
Response: < 100 nM

Query: GET /values?readout=IC50&system=wild-type human melanocortin 4 receptor (WT-hMC4R) (Homo sapiens, UniProt P32245)&item= CCCCN(CCC)C(=O)c1ccc2nc(Nc3ccc(OC)cc3)n(CCCN3CCCCC3)c2n1
Response: 100 to 1000 nM

Query: For wild-type human melanocortin 4 receptor (WT-hMC4R) (Homo sapiens, UniProt P32245), provide IC50 of COc1ccc(Nc2nc3ccc(C(=O)N(CCC(C)C)CCC(C)C)nc3n2C2CCN(Cc3ccccc3)CC2)cc1 please.
Response: 1000 to 15000 nM

Query: // lookup IC50 | system=wild-type human melanocortin 4 receptor (WT-hMC4R) (Homo sapiens, UniProt P32245) | key= CCCCN(CCCC)C(=O)c1ccc2nc(Nc3cccnc3)n(CCCN3CCCCC3)c2n1
Response: < 100 nM

Query: Entry CCCCN(CCCC)C(=O)c1ccc2nc(NC(=O)c3ccccc3)n(CCCN3CCCCC3)c2n1 , system wild-type human melanocortin 4 receptor (WT-hMC4R) (Homo sapiens, UniProt P32245): what IC50 was measured?
Response: 1000 to 15000 nM

Query: wild-type human melanocortin 4 receptor (WT-hMC4R) (Homo sapiens, UniProt P32245) / IC50 / CCCCN(CCCC)C(=O)c1ccc2nc(-c3cc(F)ccc3Br)n(CCCN3CCCCC3)c2n1 : value?
Response: 1000 to 15000 nM

Query: Given the entry CC(C)CCN(CCC(C)C)C(=O)c1ccc2nc(Nc3cccnc3)n(CCCN3CCOCC3)c2n1 , what IC50 was observed with wild-type human melanocortin 4 receptor (WT-hMC4R) (Homo sapiens, UniProt P32245)?
Response: 100 to 1000 nM

Query: Param readout= IC50; system= wild-type human melanocortin 4 receptor (WT-hMC4R) (Homo sapiens, UniProt P32245); entry= C=C(C)CNc1nc2ccc(C(=O)N(CCCC)CCCC)nc2n1CCCN1CCCCC1 ; returns value.
Response: 1000 to 15000 nM

Query: Tell me reported IC50 for CCCCN(CCCC)C(=O)c1ccc2nc(Nc3ccc(C(=O)OC)cc3)n(CCCN3CCCCC3)c2n1 , tested with wild-type human melanocortin 4 receptor (WT-hMC4R) (Homo sapiens, UniProt P32245).
Response: < 100 nM

Query: Find IC50 (wild-type human melanocortin 4 receptor (WT-hMC4R) (Homo sapiens, UniProt P32245)) for the entry CCCCN(CCCC)C(=O)c1ccc2nc(Nc3ccccc3)n(CCCN3CCCCC3)c2n1
Response: < 100 nM

Query: # returns recorded IC50 (system: wild-type human melanocortin 4 receptor (WT-hMC4R) (Homo sapiens, UniProt P32245)) for CCCCN(CCCC)C(=O)c1ccc2nc(-c3cccc(C#N)c3)n(CCCN3CCCCC3)c2n1
Response: 1000 to 15000 nM

Query: Find IC50 (wild-type human melanocortin 4 receptor (WT-hMC4R) (Homo sapiens, UniProt P32245)) for the entry CCCCN(CCCC)C(=O)c1ccc2nc(Nc3ccc(C(C)=O)cc3)n(CCCN3CCCCC3)c2n1
Response: < 100 nM

Query: // fetch wild-type human melanocortin 4 receptor (WT-hMC4R) (Homo sapiens, UniProt P32245) IC50 for CCCCN(CCCC)C(=O)c1ccc2nc(-c3cc(Br)ccc3OC)n(CCCN3CCCCC3)c2n1
Response: 100 to 1000 nM

Query: Test system wild-type human melanocortin 4 receptor (WT-hMC4R) (Homo sapiens, UniProt P32245); read-out IC50; what value for CCCCN(CCCC)C(=O)c1ccc2nc(Nc3ccc(OC)cc3)n(C3CCN(Cc4ccccc4)CC3)c2n1 ?
Response: 1000 to 15000 nM

Query: State its IC50 on wild-type human melanocortin 4 receptor (WT-hMC4R) (Homo sapiens, UniProt P32245): CCCCN(CCCC)C(=O)c1ccc2nc(NC(=O)OCC)n(CCCN3CCCCC3)c2n1
Response: 1000 to 15000 nM

Query: Test system wild-type human melanocortin 4 receptor (WT-hMC4R) (Homo sapiens, UniProt P32245); read-out IC50; what value for CCC(C)N(C(=O)c1ccc2nc(Nc3ccc(OC)cc3)n(CCCN3CCCCC3)c2n1)C(C)CC (stereo not drawn) ?
Response: 100 to 1000 nM

Query: What reported IC50 corresponds to CCCCN(CCCC)C(=O)c1cc2c(cn1)nc(Nc1ccc(OC)cc1)n2CCCN1CCCCC1 on wild-type human melanocortin 4 receptor (WT-hMC4R) (Homo sapiens, UniProt P32245)?
Response: 100 to 1000 nM

Query: What reported IC50 corresponds to CCCCN(CCCC)C(=O)c1ccc2nc(NC3CCCCC3)n(CCCN3CCCCC3)c2n1 on wild-type human melanocortin 4 receptor (WT-hMC4R) (Homo sapiens, UniProt P32245)?
Response: 100 to 1000 nM

Query: So what IC50 did CCC1CCC(C)N(C(=O)c2ccc3nc(Nc4ccc(OC)cc4)n(CCCN4CCCCC4)c3n2)C1 (stereo not drawn) get with wild-type human melanocortin 4 receptor (WT-hMC4R) (Homo sapiens, UniProt P32245)?
Response: 1000 to 15000 nM

Query: State its IC50 on wild-type human melanocortin 4 receptor (WT-hMC4R) (Homo sapiens, UniProt P32245): CCCCN(CCCC)C(=O)c1ccc2nc(NC(C)C)n(CCCN3CCCCC3)c2n1
Response: 1000 to 15000 nM

Query: Please state recorded IC50 (tested on wild-type human melanocortin 4 receptor (WT-hMC4R) (Homo sapiens, UniProt P32245)) of CCCCN(CCCC)C(=O)c1ccc2nc(Nc3ccc(C(=O)O)cc3)n(CCCN3CCCCC3)c2n1
Response: 1000 to 15000 nM

Query: Short answer please: IC50, wild-type human melanocortin 4 receptor (WT-hMC4R) (Homo sapiens, UniProt P32245), entry CCCCN(CCCC)C(=O)c1ccc2nc(Nc3ccc(C(=O)N4CCCCC4)cc3)n(CCCN3CCCCC3)c2n1
Response: 100 to 1000 nM

Query: What value of IC50 on wild-type human melanocortin 4 receptor (WT-hMC4R) (Homo sapiens, UniProt P32245) does COc1ccc(Nc2nc3ccc(C(=O)N(CCC(C)C)CCC(C)C)nc3n2CCCN2CCOCC2)cc1 have?
Response: 100 to 1000 nM

Query: wild-type human melanocortin 4 receptor (WT-hMC4R) (Homo sapiens, UniProt P32245) / IC50 / CCCCN(CCCC)C(=O)c1ccc2nc(NCc3ccccc3)n(CCCN3CCCCC3)c2n1 : value?
Response: 100 to 1000 nM

Query: Identify the measured IC50 of COc1ccc(Nc2nc3cnc(C(=O)N(CCC(C)C)CCC(C)C)cc3n2CCCN2CCCCC2)cc1 for wild-type human melanocortin 4 receptor (WT-hMC4R) (Homo sapiens, UniProt P32245).
Response: < 100 nM

Query: Notebook: pull reported IC50 for wild-type human melanocortin 4 receptor (WT-hMC4R) (Homo sapiens, UniProt P32245), entry CCCCN(CCCC)C(=O)c1cc2c(cn1)nc(Nc1ccccc1)n2CCCN1CCCCC1
Response: 100 to 1000 nM

Query: Record COc1ccc(Nc2nc3ccc(C(=O)N4CC(C)CC(C)C4)nc3n2CCCN2CCCCC2)cc1 (stereo not drawn) : what is its IC50 with wild-type human melanocortin 4 receptor (WT-hMC4R) (Homo sapiens, UniProt P32245)?
Response: 1000 to 15000 nM

Query: What reported IC50 corresponds to CCCCN(CCCC)C(=O)c1cc2c(cn1)nc(-c1ccc(OC)cc1)n2CCCN1CCCCC1 on wild-type human melanocortin 4 receptor (WT-hMC4R) (Homo sapiens, UniProt P32245)?
Response: 1000 to 15000 nM

Query: Form: Entry = CCCCN(CCCC)C(=O)c1ccc(Nc2nc3ccc(C(=O)N(CCCC)CCCC)nc3n2CCCN2CCCCC2)cc1 | System = wild-type human melanocortin 4 receptor (WT-hMC4R) (Homo sapiens, UniProt P32245) | IC50 = ____
Response: 100 to 1000 nM
